tested on: Rat fibroblasts (CREF); test: Peg3 promoter luciferase inhibitors, potency, dose response, cell-based, HeLa, CREF/GAPDH counter-screen panel (AID 624167); details: CREF/GAPDH counter-screens, run 2, dose range 1, individual replicate IC50 per panel
Listed here: items and their measured IC50.
Could you give me the number in µM? Just the number is fine.

Illustrative cases are given below, each with its answer.
[Q] I'm curious: which IC50 was measured for Cc1ccc(C(=O)Nc2ncc([N+](=O)[O-])s2)cc1 tested on Rat fibroblasts (CREF)?
[A] 11.8

[Q] Form field: IC50 recorded for CCCOc1ccc2cc(-c3ccccn3)c(=O)oc2c1 with Rat fibroblasts (CREF) (enter value)
[A] 1.58

[Q] Hi! What's the reported IC50 for COc1ccc(/C=N/Nc2nncc3ccccc23)cc1 on Rat fibroblasts (CREF)?
[A] 0.712

Continuing:
[Q] Hi! What's the reported IC50 for Cc1cc(C)c2c(N)c(C(=O)Nc3ncc(C)s3)sc2n1 on Rat fibroblasts (CREF)?
[A] 3.76

[Q] Any idea what IC50 came out for O=C(/C=C/c1ccccc1)Nc1cccc(C(=O)O)c1 on Rat fibroblasts (CREF)?
[A] 6.6

[Q] API: value(readout= IC50, system= Rat fibroblasts (CREF), query= CN1CCC2(CC1)N=C(c1ccc(F)cc1)C(=S)N2C(=O)c1ccc(C(C)(C)C)cc1 )
[A] 44.5

[Q] Lab note: need IC50 with Rat fibroblasts (CREF) for entry O=C(N/N=C/c1cccs1)c1n[nH]c2c1CCCC2 , please look it up.
[A] 6.91

[Q] Write down the reported IC50 of c1ccc(-c2nc(-c3ccccn3)no2)cc1 , test system: Rat fibroblasts (CREF).
[A] 2.79

[Q] Form: Entry = Nc1ccc(-c2nc3ccc(C(=O)O)cc3s2)cc1 | System = Rat fibroblasts (CREF) | IC50 = ____
[A] 5.81

[Q] Any idea what IC50 came out for C=C1CC2(OC1=O)c1ccccc1CCc1ccccc12 on Rat fibroblasts (CREF)?
[A] 8.28

[Q] Please state recorded IC50 (tested on Rat fibroblasts (CREF)) of O=c1oc2ccccc2cc1-c1cn2ccccc2n1
[A] 6.1

[Q] Look up IC50 with Rat fibroblasts (CREF) for this compound: COc1cc(SC)ccc1C(=O)Nc1nc2ccccc2[nH]1
[A] 0.288

[Q] Record C/C(=N\NC(=O)c1c(C)nc2ccccn12)c1ccc(O)cc1O : what is its IC50 with Rat fibroblasts (CREF)?
[A] 25.5

[Q] Request: IC50, test system Rat fibroblasts (CREF), entry O=C(O)c1ccc(N/N=C/c2ccc3c(c2)OCO3)cc1
[A] 47.1

[Q] Find the measured IC50: item Cc1cccc(CS(=O)(=O)c2ncc(Cl)c(C(=O)Nc3ccc(F)cc3)n2)c1 , target or system Rat fibroblasts (CREF).
[A] 2.02

[Q] Under Rat fibroblasts (CREF): IC50 value of Cc1ccc(-c2nnc(SCC(=O)Nc3ccccc3F)o2)cc1 ?
[A] 3.08

* * *

Below is a list of entries, each paired with its recorded IC50 value.
system: PEG-3; assay: Peg3 promoter luciferase inhibitors, potency, dose response, cell-based, HeLa, CREF/GAPDH counter-screen panel (AID 624167); conditions: HeLa PEG-Prom luciferase reporter, overnight, CREF/GAPDH counter-screens, run 1, dose range 1, individual replicate IC50 per panel
Quick note: give the figure in µM, leave out the unit.

[Q] Query: IC50; subject: COc1ccc(N(C(=O)CCl)C(C(=O)NC2CCCCC2)c2cccnc2)cc1 (configuration not stated)
[A] 6.62

[Q] Return reported IC50; argument: O=C1CCC2S/C(=C/Nc3ccc(C(F)(F)F)cc3)C(=O)N12 (configuration not stated)
[A] 6.39

[Q] Given the entry COc1cc(CNC(C)(C)CO)cc(Br)c1OCc1ccc(Cl)cc1 , report its measured IC50.
[A] 20.6

New cases:
[Q] Fill in: IC50 of COc1ccc(NC(=O)c2cc(-c3ccccn3)nc3ccccc23)cc1S(=O)(=O)N(C)C is ___
[A] 1.12

[Q] I am curious: what IC50 value has been reported for COc1ccc(-n2cc(-c3ccccc3)c3c(N4CCOCC4)ncnc32)cc1 ?
[A] 12.1

[Q] Any idea what IC50 was measured for O=c1[nH]c(=O)n(C2OC(CO)C(O)C2O)cc1F (configuration not stated) ?
[A] 25.6

[Q] For the compound CCOC(=O)/C(=C\c1ccccc1)C(=O)CCN1CCOCC1 , what IC50 is on record?
[A] 16.6

[Q] So what's the measured IC50 for this one? O=C(Nc1ccc2oc(-c3ccncc3)nc2c1)c1ccc([N+](=O)[O-])o1
[A] 15.9

[Q] Sample Cc1ccsc1/C=N/Nc1cccc(C(=O)O)c1 — what was its IC50?
[A] 1.27

* * *

tested on: PEG-3; test: Peg3 promoter luciferase inhibitors, potency, dose response, cell-based, HeLa, CREF/GAPDH counter-screen panel (AID 624167); conditions: HeLa PEG-Prom luciferase reporter, overnight, CREF/GAPDH counter-screens, run 1, dose range 1, individual replicate IC50 per panel
Quantity: pIC50
Keep it numeric: pIC50 is minus log10 of the concentration in mol/L.

Look over these answered cases.
[Q] Entry C=CCn1c(C)cc(C2=NNC(=NCC)SC2)c1C has what pIC50?
[A] 5.52

[Q] Which pIC50 value belongs to CC(=O)Nc1ccc(Nc2nc(C)c([N+](=O)[O-])c(Nc3ccccc3)n2)cc1 ?
[A] 4.65

More entries:
[Q] Could you share which pIC50 value was measured for CCN1CCN(CCNC(=O)c2ccc(/C=C3\Sc4ccccc4N(Cc4ccccc4F)C3=O)cc2)CC1 ?
[A] 4.69

[Q] Item COc1ccc(C[C@H]2CN3C(=NC[C@@H]3Cc3ccc(O)cc3)N2C[C@H](C)NC(=O)c2ccc(C)c(Br)c2)cc1 has what recorded pIC50?
[A] 4.64

[Q] Request the reported pIC50 associated with CN=c1scc(-c2ccccc2F)n1/N=C/c1ccc[nH]1
[A] 5.31

[Q] Please look up its pIC50: O=C(CCN1C(=O)/C(=C/c2ccc(F)cc2)SC1=S)N[C@@H](CO)Cc1ccccc1
[A] 4.92

[Q] Entry C=CCn1c(C)cc(C(=O)COc2ccc(C)nc2[N+](=O)[O-])c1C has what pIC50?
[A] 5.81

[Q] I would be grateful if you could share the reported pIC50 for CCCCC(=O)NC(c1ccccc1)c1ccc2cccnc2c1O (stereo not given) .
[A] 5.55

[Q] Given CCCCC(=O)NC(c1ccc(OC)cc1)c1ccc2cccnc2c1O (stereo not given) , state its recorded pIC50.
[A] 5.09

[Q] // returns reported pIC50 for input CC(C)CC1C(=O)N(Cc2cn(CCC3OCCO3)nn2)CCS(=O)(=O)N1Cc1ccc(-c2ccc(F)cc2)cc1 (stereo not given)
[A] 4.50

* * *

tested on: PEG-3; experiment: Peg3 promoter luciferase inhibitors, potency, dose response, cell-based, HeLa, CREF/GAPDH counter-screen panel (AID 624167); details: HeLa PEG-Prom luciferase reporter, overnight, CREF/GAPDH counter-screens, run 1, dose range 1, individual replicate IC50 per panel
Each entry falls into one class according to its IC50; the ranges are Low: < 7 µM; Mid: ≥ 7 µM and < 20 µM; High: ≥ 20 µM

Solved cases (5 shown):
[Q] Bin this entry: CC(C)(C)c1ccc(OCCCNCc2ccccc2)cc1
[A] High

[Q] Where would Cc1c(OCC(=O)NC2CC(C)(C)NC(C)(C)C2)ccc2c1oc(=O)c1ccccc12 land among the classes by reported IC50?
[A] High

[Q] Band assignment needed for O=C(CN1CCN(Cc2ccccc2Cl)CC1)N=Nc1c(O)[nH]c2ccccc12 please.
[A] Low

[Q] Hi there! Could you help me figure out the category for CCCCNC(=O)C(C)N(CCN(C)C)C(=O)CCCCCN1C(=O)NC(c2ccc(Cl)cc2)C(C(=O)OCc2ccccc2)=C1C (stereo not given) please?
[A] Mid

[Q] Class? Entry: Oc1[nH]c2ccc(Br)cc2c1N=NC(=S)Nc1ccc(F)cc1
[A] Mid

More entries:
[Q] Using the reported IC50, which band applies to Cc1nn(-c2ccccc2Cl)c(Cl)c1/C=N/Nc1nc2ccccc2s1 ?
[A] Low

[Q] Which category does the recorded IC50 put COc1cc(/C=C2\SC(=Nc3ccccc3OC)NC2=O)ccc1O in?
[A] Low

[Q] Consider CN(C)CCc1cc2c(c3c1ccc1ccccc13)OCO2 . To which IC50 class does it belong?
[A] Mid

[Q] Place this compound in its band: Cc1cccc(NC(=O)CSc2nc3ccccc3c3nc(CCc4c(C)n[nH]c4C)nn23)c1
[A] High

[Q] Hey, which category is O=C(Nc1ccc(Cc2ccncc2)cc1)c1ccc([N+](=O)[O-])o1 in, do you know?
[A] Mid

[Q] State the band of C[C@@H](C(=O)Nc1ccc2c(c1)OCCO2)n1c(=O)[nH]c2ccccc2c1=O
[A] Mid

[Q] The entry to classify is CCCS(=O)(=O)c1cnc(C2COc3ccccc3O2)nc1N (stereo not given) ; which class holds it?
[A] Low

[Q] # bin lookup: classify Nc1c(C(=O)Nc2cccc(C(=O)O)c2)sc2nc3c(cc12)CCCC3 by its IC50
[A] Low

[Q] Dear colleague, I would appreciate it if you could identify the bin for COc1ccc(-c2cc(C(=O)N(C)Cc3cccc(OC)c3OC)c3ccccc3n2)cc1OC and reply at your convenience.
[A] Mid
